target: T1, recombinant human TSLP (R&D Systems) (human, UniProt Q969D9 29-159); assay: BioVeris electrochemiluminescence screening, Fab in E. coli lysate on biotinylated TSLP coupled to streptavidin beads
T1 construct: also called hTSLP; human thymic stromal lymphopoietin
Outcome measure: binding result

Binder: MOR05018 Fab (Fab, V domains shown) VH: QVQLVESGGGLVQPGGSLRLSCAASGFTFSSYYMSWVRQAPGKGLEWVSNISYDSSDTYYADSVKGRFTISRDNSKNTLYLQMNSLRAEDTAVYYCARQQYFDHIDIWGQGTLVTVSS VL: DIELTQPPSVSVAPGQTARISCGGDSLGGKYVYWYQQKPGQAPVLVIYGDSKRPSGIPERFSGSNSGNTATLTISGTQAEDEADYYCQSYDLGSLNLVFGGGTKLTVLG
Outcome measure: binding result
Val: binds
//
Binder: MOR05021 Fab (Fab, V domains shown) VH: QVQLVESGGGLVQPGGSLRLSCAASGFTFSNHALSWVRQAPGKGLEWVSGIQYDGSNTGYADSVKGRFTISRDNSKNTLYLQMNSLRAEDTAVYYCARYYGYSYMDYWGQGTLVTVSS VL: DIELTQPPSVSVAPGQTARISCSGDNLGSKYVHWYQQKPGQAPVLVIYADNNRPSGIPERFSGSNSGNTATLTISGTQAEDEADYYCSSYDLDGVRVFGGGTKLTVLG
Outcome measure: binding result
Val: binds
//
Binder: MOR05012 Fab (Fab, V domains shown) VH: QVQLVESGGGLVQPGGSLRLSCAASGFTFSSYYMSWVRQAPGKGLEWVSGIFFTGETYYPDSVKGRFTISRDNSKNTLYLQMNSLRAEDTAVYYCARQQYFDHIDIWGQGTLVTVSS VL: DIELTQPPSVSVAPGQTARISCGGDSLGGKYVYWYQQKPGQAPVLVIYGDSKRPSGIPERFSGSNSGNTATLTISGTQAEDEADYYCQSYTNALSTVFGGGTKLTVLG
Outcome measure: binding result
Val: binds
